# STUDY_TARGET: UniProt:Q9UBN7
# ASSAY_REMARKS: In vitro histone deacetylase assay: enzymatic HDAC6 electrophoretic mobility shift assay
# CONDITION: full length human recombinant HDAC6, 1 nM enzyme, 2 μM peptide substrate RHKK(Ac)-NH2, 25° C.; read-out: Inhibitory Concentration (IC50) Values for Representative Compounds against HDAC6, Activity Range
pIC50: −log10 of the molar value.
READOUT_KIND: pIC50

[[record]]
smiles_structure = "COc1ccc(CCN2CC(=O)Nc3ccc(C(=O)NO)cc3C2)cc1"
readout_kind = "pIC50"
result = "6.30 to 7.00"

[[record]]
smiles_structure = "O=C1CN(Cc2cccc(Oc3ccccc3)c2)Cc2cc(C(=O)NO)ccc2N1"
readout_kind = "pIC50"
result = "6.30 to 7.00"

[[record]]
smiles_structure = "C[C@H]1COc2cc(C(=O)NO)ccc2CN1C(=O)NC1CCCCC1"
readout_kind = "pIC50"
result = "≥ 7.00"


Reported pIC50, compound CC[C@H]1COc2cc(C(=O)NO)ccc2CN1Cc1ccc(OC)cc1 : ____
≥ 7.00

Quick one: pIC50 for O=C1CN(Cc2nc3ccccc3[nH]2)Cc2cc(C(=O)NO)ccc2N1 ?
≥ 7.00

Name the recorded pIC50 for C[C@H]1COc2cc(C(=O)NO)ccc2CN1Cc1ccc(F)cc1 .
≥ 7.00

For the compound shown here, COCCNC(=O)N1Cc2ccc(C(=O)NO)cc2OC[C@@H]1C , give the reported pIC50.
≥ 7.00

Look up pIC50: C[C@H]1COc2cc(C(=O)NO)ccc2CN1C(=O)N1CCCC1
≥ 7.00

# query: pIC50 of entry O=C(NO)c1ccc2c(c1)OCCN(c1ccc(Cl)c(Cl)c1)C2
6.30 to 7.00

Consider the compound O=C(NO)c1ccc2c(c1)OCCN(CC1CCCCC1)C2 and give its measured pIC50.
6.30 to 7.00

Given the entry COc1ccc(S(=O)(=O)N2CCOc3ccc(C(=O)NO)cc3C2)cc1 , report its measured pIC50.
6.30 to 7.00

###

Listed here are compounds together with their documented IC50.
# STUDY_TARGET: HDAC6 (Homo sapiens, UniProt Q9UBN7)
# Sequence (Q9UBN7 whole entry): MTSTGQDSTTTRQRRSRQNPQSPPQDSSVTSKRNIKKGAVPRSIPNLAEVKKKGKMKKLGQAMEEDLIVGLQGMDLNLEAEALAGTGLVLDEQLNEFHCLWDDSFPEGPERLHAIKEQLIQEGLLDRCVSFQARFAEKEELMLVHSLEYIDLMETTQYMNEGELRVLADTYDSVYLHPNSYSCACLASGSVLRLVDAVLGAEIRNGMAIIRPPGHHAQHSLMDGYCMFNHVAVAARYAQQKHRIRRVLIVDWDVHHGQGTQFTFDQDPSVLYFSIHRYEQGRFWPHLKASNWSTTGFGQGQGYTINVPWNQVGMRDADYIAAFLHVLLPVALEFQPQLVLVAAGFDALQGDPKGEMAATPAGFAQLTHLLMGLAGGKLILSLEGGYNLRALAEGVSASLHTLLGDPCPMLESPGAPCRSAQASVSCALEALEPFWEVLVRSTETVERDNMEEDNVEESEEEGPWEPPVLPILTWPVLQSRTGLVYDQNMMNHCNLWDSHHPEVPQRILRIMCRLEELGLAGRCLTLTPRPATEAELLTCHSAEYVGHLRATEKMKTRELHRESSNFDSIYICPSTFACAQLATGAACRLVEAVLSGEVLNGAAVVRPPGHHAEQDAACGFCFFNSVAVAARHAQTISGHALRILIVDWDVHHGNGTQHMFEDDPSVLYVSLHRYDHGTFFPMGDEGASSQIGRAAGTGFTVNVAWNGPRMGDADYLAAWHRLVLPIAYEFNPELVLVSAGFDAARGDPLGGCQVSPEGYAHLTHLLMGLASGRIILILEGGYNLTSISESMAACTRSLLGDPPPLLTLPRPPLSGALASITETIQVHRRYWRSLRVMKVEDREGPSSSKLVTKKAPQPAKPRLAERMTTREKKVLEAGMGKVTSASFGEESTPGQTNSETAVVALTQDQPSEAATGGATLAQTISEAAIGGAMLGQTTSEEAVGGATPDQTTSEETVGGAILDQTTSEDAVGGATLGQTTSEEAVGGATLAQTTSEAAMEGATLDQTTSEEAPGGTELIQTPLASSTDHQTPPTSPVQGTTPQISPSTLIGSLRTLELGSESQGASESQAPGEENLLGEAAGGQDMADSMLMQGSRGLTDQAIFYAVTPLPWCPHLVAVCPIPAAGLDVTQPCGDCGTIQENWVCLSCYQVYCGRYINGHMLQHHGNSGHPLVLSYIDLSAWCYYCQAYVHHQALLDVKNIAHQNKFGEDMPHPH
# ASSAY_REMARKS: In vitro histone deacetylase assay: enzymatic HDAC6 electrophoretic mobility shift assay
# CONDITION: full length human recombinant HDAC6, 1 nM enzyme, 2 μM peptide substrate RHKK(Ac)-NH2, 25° C.; read-out: Inhibitory Concentration (IC50) Values for Representative Compounds against HDAC6, Activity Range

Worked cases, IC50 given:
[[record]]
compound = "C[C@H]1COc2cc(C(=O)NO)ccc2CN1C(=O)OC1CCOCC1"
study_target = "HDAC6 (Homo sapiens, UniProt Q9UBN7)"
result = "≤ 100 nM"

[[record]]
compound = "C[C@H]1COc2cc(C(=O)NO)ccc2CN1c1ccc(OC(F)(F)F)cc1"
study_target = "HDAC6 (Homo sapiens, UniProt Q9UBN7)"
result = "100 to 500 nM"

[[record]]
compound = "C[C@@H]1COc2cc(C(=O)NO)ccc2CN1C"
study_target = "HDAC6 (Homo sapiens, UniProt Q9UBN7)"
result = "≤ 100 nM"

[[record]]
compound = "O=C1CN(Cc2cccc3c2OC(F)(F)O3)Cc2cc(C(=O)NO)ccc2N1"
study_target = "HDAC6 (Homo sapiens, UniProt Q9UBN7)"
result = "≤ 100 nM"

[[record]]
compound = "C[C@H]1COc2cc(C(=O)NO)ccc2CN1CC1CCCCC1"
study_target = "HDAC6 (Homo sapiens, UniProt Q9UBN7)"
result = "≤ 100 nM"

[[record]]
compound = "CC(C)OC(=O)N1Cc2ccc(C(=O)NO)cc2OC[C@@H]1C"
study_target = "HDAC6 (Homo sapiens, UniProt Q9UBN7)"
result = "≤ 100 nM"

[[record]]
compound = "C[C@H]1COc2cc(C(=O)NO)ccc2CN1C(=O)N1CCC1"
study_target = "HDAC6 (Homo sapiens, UniProt Q9UBN7)"
result = "≤ 100 nM"

[[record]]
compound = "CCOC(=O)N1Cc2ccc(C(=O)NO)cc2OC[C@@H]1C"
study_target = "HDAC6 (Homo sapiens, UniProt Q9UBN7)"
result = "≤ 100 nM"


Next compound, IC50 to be filled in.
Please look up its IC50: COCCN(C)C(=O)N1Cc2ccc(C(=O)NO)cc2OC[C@@H]1C
≤ 100 nM

# credit: patent US11279681B2
